- Target desc: T1, human IL-1RAcP on 293T/17-FR cells (human, UniProt Q9NPH3 21-570)
- T1 sequence (looked up): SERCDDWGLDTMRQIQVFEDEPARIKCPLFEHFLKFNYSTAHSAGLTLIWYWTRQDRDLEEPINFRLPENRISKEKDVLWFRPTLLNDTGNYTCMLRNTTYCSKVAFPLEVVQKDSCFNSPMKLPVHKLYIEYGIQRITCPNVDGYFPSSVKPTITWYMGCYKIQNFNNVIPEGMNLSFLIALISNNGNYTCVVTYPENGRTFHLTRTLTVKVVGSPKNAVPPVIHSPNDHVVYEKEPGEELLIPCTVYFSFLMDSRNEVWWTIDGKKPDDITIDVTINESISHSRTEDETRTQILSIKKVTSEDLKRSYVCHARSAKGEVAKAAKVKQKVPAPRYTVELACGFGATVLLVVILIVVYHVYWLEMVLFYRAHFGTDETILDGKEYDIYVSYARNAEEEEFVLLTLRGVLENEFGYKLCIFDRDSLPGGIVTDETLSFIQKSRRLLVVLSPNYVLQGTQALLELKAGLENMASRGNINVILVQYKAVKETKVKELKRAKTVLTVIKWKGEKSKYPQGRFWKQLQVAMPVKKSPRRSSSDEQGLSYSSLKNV
- Test description: cell-based or functional assay
Assay readout: functional reporter gene assay (% inhibition), 1 µg/mL mAb (%)
// units = %; emit number, no label

Solved cases below.
P013.S.02.B.B01 (antibody, V domains shown, rabbit monoclonal antibody; also called P013.A.00088.A11) VH: QSLEESGGRLVTPGTPLTLTCTVSGFSLSGYAMSWVRQAPGKGLEWIGIIYAGSGGTYYASWVKGRFTISKTSTTVDLKITSLTTEDTATYFCARAVPDDSAGKKLWGQGTLVTVSS VL: DIVMTQTPASVEAAVGGTITINCQASENIYSSLAWYQQKPGQPPKLLIYDASTLASGVSSRFKGSGSGTQFTLTISGVQSDDAATYYCQSYYCSVSSSCGYGFGGGTEVVVK ... 75
P013.S.02.B.G02 (antibody, V domains shown, rabbit monoclonal antibody; also called P013.A.00014.C07) VH: QSLEESGGDLVKPGASLTLTCTASGFSLSSGGMTWVRQAPGKGLEWIGYINTGSGRTYYASWAKGRFIISKTSSTTVSLQMTSLTAADTATYFCAGGLPSDLWGPGTLVTVSS VL: DIVMTQTPSSVEAAVGGTVTIKCQASQSINSRLAWYQQKPGQPPKLLIYDASTLASGVSSRFSGSGTEFTLTISDLESADGATYYCLSHYLTSSSSYGNAFGGGTEVVVK ... 5

Continue with the next binder.
Need functional reporter gene assay (% inhibition), 1 µg/mL mAb, item P013.S.01.B.B04 (antibody, V domains shown, rabbit monoclonal antibody; also called P013.A.00086.E02) VH: QSVEESGGRLVTPGTPLTLTCTVSGIDLDNYAMGWVRQAPGKGLEYIGVISSDGFFYDASWAKGRFTISKASSTTVDLKMTGLTPEDTATYFCARDRGTSTGSLDLWGQGTLVTVSS VL: ALVMTQTPASVSEPVGGTVTIKCQASENIGNGLAWYQQKPGQPPNLLIYGASTLASGVPSRFSGSGYGTEFTLTVSDLESGDAATYYCQCTYWNPDYIGGAFGGGTEVVVT 93
